testMethodNotes: amyloid nucleation score (Sup35N fusion, yeast selection) (log enrichment); library NNK1; higher = more nucleation; inactive = no reads after selection;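 further: zero at mode of non-aggregating sequences after 7 days selection at 30°C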
Tick MET if amyloid nucleation score is 0.4 or greater. Tick NOT MET if amyloid nucleation score is less than 0.4.

Previously resolved entries follow.
[[record]]
orderedresidues = "GCSTYMVLMVGLGGGMLGGF"
qualitativelabel = "MET"

[[record]]
orderedresidues = "NISSNRCVNNVAPSDSSTYF"
qualitativelabel = "NOT MET"

[[record]]
orderedresidues = "IGVVVWRPNLILRKEYLWRV"
qualitativelabel = "NOT MET"

[[record]]
orderedresidues = "RFMSTSLFLMVSNELLSPLM"
qualitativelabel = "MET"

[[record]]
orderedresidues = "SVHSLMRDRISVPPRIVKNP"
qualitativelabel = "NOT MET"


Could you tell me if the measured amyloid nucleation score of SWPMTIQYGDSIWNWKMSVM reaches 0.4 or more?
NOT MET

Could you tell me if the measured amyloid nucleation score of SKTSKWYPTDKLNTGALFLK reaches 0.4 or more?
NOT MET

* * *

Could you please report measured amyloid nucleation score for the items listed next?
testMethodNotes: amyloid nucleation score (Sup35N fusion, yeast selection) (log enrichment); library NNK2; higher = more nucleation; inactive = no reads after selection
Give bare numbers.

Here are 5 substances together with their reported answers.
[[record]]
substance = "IYLHFGNLLNYFETRRTVFR"
assaymetric = "amyloid nucleation score"
recordedvalue = 6.19

[[record]]
substance = "TGMQMFMVVWLGQLDRSDTI"
assaymetric = "amyloid nucleation score"
recordedvalue = 1.07

[[record]]
substance = "THNLAEGQGKDCVQSLDRMG"
assaymetric = "amyloid nucleation score"
recordedvalue = 0.22

[[record]]
substance = "MLVSGSSLEW"
assaymetric = "amyloid nucleation score"
recordedvalue = 0.264

[[record]]
substance = "TRCKHDDVW"
assaymetric = "amyloid nucleation score"
recordedvalue = 1.5


Dear reader, for each entry below, please note its amyloid nucleation score.
1. ISFYYWLARPCLFVSKIEGA
2. GESSPE
3. WFACYMRIAGTGQEVMYVTM
4. EDLWWVQLSNLKDSVDEYCR
5. DSCRGMVSFCG
6. NRGSGSAGMVSLLNNSWRWA

1. 3.54
2. 0.343
3. 0.424
4. 0.007
5. -0.399
6. 1.48

Dear reader, for each entry below, please note its amyloid nucleation score.
1. RRGNWKMSFFRMLTVNP
2. KCVVRAVA
3. VKTRVQPRTGDLSATLLGLE
4. TVFLTGRFCWVFPRSCYLSY
5. EMLYTSFILSLWNNLDFILS
6. LYTKRSKY
7. QYYELWSFTDWVWDLWGVQS

-0.488
2.23
0.828
-0.758
-0.452
-0.161
-0.568

Dear reader, for each entry below, please note its amyloid nucleation score.
1. KNYGYNIN
2. ILIRLLTKVLTMLNDMH
3. NAERSESLYNYKMAGPYGEG
4. CNTCLLSFG

1: 1.83; 2: 0.136; 3: -0.661; 4: 0.814

Dear reader, for each entry below, please note its amyloid nucleation score.
1. IIDYFSN
2. VAFNGYLY
3. KVTSRTTGMIVSFFMPCLEM
4. SRYVPMSFY
5. NNLGKEWKNIWGECLRRVAP
6. SENFLYLDVVFMCHSMIDRG

-0.953
-0.89
5.97
0.125
4.48
0.131

Reference source for all entries: the supplement of paper PMC12042874
